Overview of reported pKd across a group of binders:
# Target or test system: T1, PTRAMP–CSS heterodimer (disulfide-linked PfPTRAMP 42–309 and PfCSS 20–290) (P. falciparum)
# T1 chain 1: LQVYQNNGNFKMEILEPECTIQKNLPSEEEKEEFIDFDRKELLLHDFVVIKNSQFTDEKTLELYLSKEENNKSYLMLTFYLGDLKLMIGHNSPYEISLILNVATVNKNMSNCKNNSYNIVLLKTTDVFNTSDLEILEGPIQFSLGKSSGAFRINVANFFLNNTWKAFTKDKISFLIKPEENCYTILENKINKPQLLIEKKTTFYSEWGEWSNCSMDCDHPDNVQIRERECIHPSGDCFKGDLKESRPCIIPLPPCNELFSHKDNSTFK
# T1 chain 2: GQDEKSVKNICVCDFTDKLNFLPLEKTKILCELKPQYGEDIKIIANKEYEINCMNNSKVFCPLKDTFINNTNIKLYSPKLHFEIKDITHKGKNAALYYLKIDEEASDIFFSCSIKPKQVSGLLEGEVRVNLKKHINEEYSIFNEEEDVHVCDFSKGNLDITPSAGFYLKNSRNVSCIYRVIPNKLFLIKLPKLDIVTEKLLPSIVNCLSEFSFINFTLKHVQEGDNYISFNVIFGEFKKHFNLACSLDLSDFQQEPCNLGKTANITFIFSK
# Assay summary: BLI
pKd: −log10 of the molar value.

{"Binder": "anti-PfCSS nanobody B1 (VHH) VHH: QVQLQESGGGLVQYGGSLRLSCAASGRTFSSYSMGWFRQAPGKEREFVAAISWTGGNTYYLGSTEGRFTISRDNAKNTVFLQMNNLKPEDTAVYYCAAKGRGSSWPTYDYRGQGTQVTVSS", "pKd": 8.25}
{"Binder": "anti-PfCSS nanobody F1 (VHH) VHH: QVQLQESGGGLVQAGGPLRLSCVASGRTFSLHLMGWFRQAPGKEREFVAAISGSGGSTYYADSVKGRFTISRDNAKNTVYLQMNSLKPEDTAVYYCAADLENYMSTMLDGYNYWGQGTQVTVSS", "pKd": 8.00}
{"Binder": "anti-PfCSS nanobody C1 (VHH) VHH: QVQLQESGGGLVQAGGSLRLSCAASGRSFSSYAMGWFSQAPGKEREFVAAISWNGGSTYYADSVKGRFTISRNNAKNTVYLQMNSLKPEDTAVYYCAATEPEIYISTMAEGYDYWGQGTQVTVSS", "pKd": 8.17}
{"Binder": "anti-PfCSS nanobody C9 (VHH) VHH: QVQLQESGGGLVQAGDSLRLSCAASGRTFSSYAMGWFRQAPGKEREFVAAIAWNGGSTYYQDSVKGRFTISRDNAKNTVYLQMNSLKPEDTAVYYCAADDSYMSTMIHEYDYWGQGTQVTVSS", "pKd": 7.92}

The reported numbers originate from paper PMC9712106.
